Target sequence: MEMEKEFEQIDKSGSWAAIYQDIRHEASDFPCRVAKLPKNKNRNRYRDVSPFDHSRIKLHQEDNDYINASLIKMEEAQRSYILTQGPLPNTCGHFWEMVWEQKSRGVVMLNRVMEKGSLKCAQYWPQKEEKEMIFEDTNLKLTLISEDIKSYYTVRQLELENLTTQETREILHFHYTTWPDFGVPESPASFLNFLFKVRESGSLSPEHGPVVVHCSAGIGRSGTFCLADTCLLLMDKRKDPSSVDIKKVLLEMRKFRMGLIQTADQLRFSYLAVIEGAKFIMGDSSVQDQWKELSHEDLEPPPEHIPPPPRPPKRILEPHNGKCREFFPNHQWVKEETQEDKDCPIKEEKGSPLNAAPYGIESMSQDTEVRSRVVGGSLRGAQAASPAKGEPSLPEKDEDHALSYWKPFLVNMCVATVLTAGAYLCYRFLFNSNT
Each item that follows carries a reported pIC50.
// returns pIC50 (minus log10 of molar concentration), number only

Worked examples follow.
O=S(=O)([O-])c1cccc2c(S(=O)(=O)[O-])cccc12.[Na+].[Na+]: 1.55
CS(=O)(=O)Nc1cccc2cc(S(=O)(=O)O)ccc12: 1.54

Please turn your attention to the following entry.
Ask: Item under review: "COC(=O)c1ccc2c(C(=O)O)c(OC)ccc2c1" . Reported pIC50?
Reply: 2.55

Origin of measurements: ChEMBL document CHEMBL1134573
